test system: OVCAR-3; test: NCI tumour cell line growth inhibition, 48 h
Calls of active or inactive are those of the source. Rule as the data show it: active = GI50 up to about 1.1 µM and inactive = higher.
Permitted responses: active, inactive

q: Call for entry C=C1C(=O)O[C@H]2C(=O)[C@H](C)CCC[C@@](C)(O)/C=C\C[C@@]3(C)O[C@@H]3C[C@@H]12 :
a: inactive

q: Call for entry O=C1c2ccccc2-c2nc(-c3ccccc3)cc3c2c1nc1ccccc13 :
a: active

q: Call for entry CC1(C(=O)O)CCC2(C)CCC3(C)C(=CC(=O)C4C5(C)CCC(O)C(C)(C)C5CCC43C)C2C1 (centres undefined) :
a: inactive

q: Call for entry C=C1C[C@]23C[C@@]1(O)CC[C@H]2[C@@]12C=C[C@H](O)[C@@](C)(C(=O)O1)[C@H]2[C@@H]3C(=O)O :
a: inactive

q: Call for entry CCC(C)NC1=NCC(C)S1 (centres undefined) :
a: inactive

q: Call for entry Cc1ccc(-n2cc(-c3ccc(Cl)cc3)c3c(=N)n(N)cnc32)cc1 :
a: inactive

q: Call for entry Cn1cc(-c2ccc3c4ccccc4n(C)c3c2)c2ccccc21 :
a: inactive

q: Call for entry COc1ccc2c(C3(O)CCNCC3)c[nH]c2c1 :
a: inactive

q: Call for entry CCOC(=O)c1ncoc1[C@H]1COC(C)(C)O1 :
a: inactive

q: Call for entry Cc1nc(-c2nc([N+](=O)[O-])c([N+](=O)[O-])[nH]2)cs1 :
a: inactive

q: Call for entry CCOC(=O)C(NC(=O)c1nc[nH]c1/N=N/N(C)C)C(C)C (centres undefined) :
a: inactive

q: Call for entry CC1=NN(c2nc(N)nc(CSCc3nc(N)nc(N(C)C)n3)n2)C(C)(C)C1 :
a: inactive

q: Call for entry CC1CN(C(=O)CN2CCC(CCCCN(C)C)CC2)c2ccccc2NC1=O (centres undefined) :
a: inactive

q: Call for entry CS(=O)(=O)c1ccc(C(=O)O[C@@H]2C(=O)N3CC[C@H]4OC(O)[C@@H]2[C@H]43)cc1 (some centres undefined) :
a: inactive

----------
tested on: HOP-92; experiment: NCI tumour cell line growth inhibition, 48 h
Activity calls are given as the source filed them. No stated cut-off is given here; in the data, active = GI50 up to about 1.1 µM and inactive = higher.
Please go through the items and note down their GI50.

The reported GI50 of the compound CC1=NN(c2nc(N)nc(CSCc3nc(N)nc(N(C)C)n3)n2)C(C)(C)C1 was > 100 µM (inactive)

The reported GI50 of the compound O=C(/C=C/c1ccc(O)cc1)OC[C@@H](O)COC1OC(CO)C(O)C(O)C1O (stereo not given in full) was > 100 µM (inactive)

The reported GI50 of the compound COCCOCCOCCOc1cccc2c1C(=O)c1cccc(OCCOCCOCCOC)c1C2=O was > 100 µM (inactive)

The reported GI50 of the compound Cc1c[n+]2c3ccccc3c3ccccc3c2s1.[O-][Cl+3]([O-])([O-])[O-] was 16.6 µM (inactive)

The reported GI50 of the compound COC(=O)CCc1cc(OC)c(O)c(C(Cc2ccc(OC)c(OC)c2)C(=O)OC)c1 (stereo not given) was > 100 µM (inactive)

The reported GI50 of the compound Cc1c(-c2ccccc2)c(C#N)c2nnn(-c3ccccc3)c(=O)n12 was > 100 µM (inactive)

The reported GI50 of the compound Cc1ccc(Nc2nc(=S)[nH]c3[nH]ncc23)cc1 was > 100 µM (inactive)

The reported GI50 of the compound O=C1Oc2ccccc2C(=O)/C1=C1/C=C(c2ccccc2)SS1 was 15.6 µM (inactive)

The reported GI50 of the compound COc1cc2ccc3c4c(OC)cc(OC)c(OC)c4c([O-])[n+](C)c3c2cc1OC was 12 µM (inactive)

The reported GI50 of the compound CSc1n[n+](C)cc(N)c1N was 17.8 µM (inactive)

----------
Please go through the items and note down their GI50.
system: NCI-H460; experiment: NCI tumour cell line growth inhibition, 48 h
The source made the active and inactive calls. Rule as the data show it: active = GI50 up to about 1.1 µM and inactive = higher.

The reported GI50 of the compound O=C(CC(=O)N1N=C(N2CCCCC2)CC1c1ccccc1)Nc1ccc(Cl)cc1 (stereo not drawn) was > 100 µM (inactive)

The reported GI50 of the compound CCCCCC[C@H]1C(=O)O[C@H](C)[C@H](NC(=O)c2cccc(NC=O)c2OC)C(=O)O[C@@H](C)[C@@H]1OC(=O)C(C)CC.CCCCCC[C@H]1C(=O)O[C@H](C)[C@H](NC(=O)c2cccc(NC=O)c2OC)C(=O)O[C@@H](C)[C@@H]1OC(=O)CC(C)C (stereo partly drawn) was 4.83 µM (inactive)

The reported GI50 of the compound NC1CNC(=O)c2c(Cl)sc(Cl)c21 (stereo not drawn) was > 100 µM (inactive)

The reported GI50 of the compound CCOC1=NC(C(F)(F)F)(C(F)(F)F)N=C(/N=C(/N)N(C)C(C(C)C)P(=O)(OC(C)C)OC(C)C)O1 (stereo not drawn) was > 100 µM (inactive)

The reported GI50 of the compound COc1ccc(N2C(=O)C(C#N)=C(SC)C(C#N)C2=O)cc1 (stereo not drawn) was > 100 µM (inactive)

The reported GI50 of the compound Cc1sc2nc(-c3cccc([N+](=O)[O-])c3)c(/C=N/N=C(N)N)n2c1C was 1.81 µM (inactive)

The reported GI50 of the compound C1=CC=C2NCCOCC/N=C3/C=CC=CC=C3NCCOCC/N=C\2C=C1 was 30.4 µM (inactive)

The reported GI50 of the compound CSc1nc(-c2ccc(C)cc2)c(C#N)c(=O)[nH]1 was > 100 µM (inactive)

----------
tested on: UO-31; experiment: NCI tumour cell line growth inhibition, 48 h
Activity calls are given as the source filed them. No stated cut-off is given here; in the data, active = GI50 up to about 1.1 µM and inactive = higher.
Permitted responses: active, inactive

q: Call for entry O=C(/C=C/c1ccccc1O)c1cccs1 :
a: inactive

q: Call for entry Cn1cc(NC(=O)Nc2cc(C(=O)Nc3cc(C(=O)Nc4ccc5cc(S(=O)(=O)O)cc(S(=O)(=O)O)c5c4)n(C)c3)n(C)c2)cc1C(=O)Nc1cc(C(=O)Nc2ccc3cc(S(=O)(=O)O)cc(S(=O)(=O)O)c3c2)n(C)c1 :
a: inactive

q: Call for entry CC(=O)C1(c2ccccc2)CCCN(C)CC1 (centres undefined) :
a: inactive

q: Call for entry COc1cc2c(cc1OC)CC1c3cc(OC)c(OC)cc3CCN1CC2 (centres undefined) :
a: active

q: Call for entry CCC(C)NC1=NCC(C)S1 (centres undefined) :
a: inactive

q: Call for entry CC(=O)OC1COC(n2c(=S)n(-c3ccccc3)c(=O)c3cc(Br)ccc32)C(OC(C)=O)C1OC(C)=O (centres undefined) :
a: inactive

q: Call for entry S=c1nc2c(c[nH]1)C1c3ccccc3C2c2ccccc21 :
a: inactive

q: Call for entry COc1ccc(OC)c2sc(N3C(=O)/C(=C/c4cccc([N+](=O)[O-])c4)N=C3c3ccccc3)nc12 :
a: inactive

q: Call for entry CN(C)CC(CC1=C(CC(CN(C)C)N(C)C)CCC1)N(C)C (centres undefined) :
a: inactive

----------
Please go through the items and note down their GI50.
system: MDA-N; assay: NCI tumour cell line growth inhibition, 48 h
The source made the active and inactive calls. No stated cut-off is given here; in the data, active = GI50 up to about 1.1 µM and inactive = higher. Where a SMILES comes first, the peptide text is derived from it. The star is where a group is joined. Cbz = O=C(OCc1ccccc1)*; NHNH2 = NN*

The reported GI50 of the molecule NS(=O)(=O)c1cc(C(=O)O)c(Cl)c([N+](=O)[O-])c1Cl was > 100 µM (inactive)

The reported GI50 of the molecule OCC1OC(n2nc(-c3ccccc3)nc2-c2cnccn2)C(O)C(O)C1O (centres undefined) was > 100 µM (inactive)

The reported GI50 of the molecule Cc1ccc(S(=O)(=O)NCCSCCSCCNS(=O)(=O)c2ccc(C)cc2)cc1 was 56 µM (inactive)

The reported GI50 of the molecule Cc1cc(Cc2c(C)c(C)c(Cc3cc(C)cc(C(C)(C)C)c3O)c(C)c2C)c(O)c(C(C)(C)C)c1 was > 100 µM (inactive)

The reported GI50 of the molecule CCOC(=O)C(C)(C)C(O)C(C)C (centres undefined) was > 100 µM (inactive)

The reported GI50 of the molecule CCOC(=O)c1c(-c2ccc(Br)cc2)ccn1C was > 10 µM (inactive)

The reported GI50 of the molecule C[N+](C)(C)CC1CCc2ccccc2C1=O (centres undefined) was 5.86 µM (inactive)

The reported GI50 of the molecule Cc1cc(O)c(C(C)C)cc1C(=S)Nc1ccc(Cl)cc1 was 11.4 µM (inactive)

The reported GI50 of the molecule O=c1c2c(F)c(F)c(F)c(F)c2sc2nccn12 was 14.4 µM (inactive)

The reported GI50 of the molecule Cc1ccc(-c2cc(-c3cc(-c4ccc(C)cc4C)[nH]n3)[nH]n2)c(C)c1 was 14.9 µM (inactive)

The reported GI50 of the molecule O=C(/C=C/c1ccc2c(c1)OCO2)Cc1nc2ccccc2[nH]c1=O was 26.6 µM (inactive)

The reported GI50 of the molecule Clc1ccc(-c2nn3c(-c4ccncc4)nnc3s2)cc1 was > 100 µM (inactive)

The reported GI50 of the molecule O=[N+]([O-])c1cccc(-c2ncnc(-c3cccc([N+](=O)[O-])c3)n2)c1 was > 100 µM (inactive)

The reported GI50 of the molecule C[C@]12C[C@@H](OC(=O)[C@]1(C)O)[C@@H]([C@]1(O)CC[C@H]3[C@@H]4C[C@H]5O[C@]56C[C@H]5O[C@H]5C(=O)[C@]6(C)[C@H]4CC[C@@]31C)C2 was > 50 µM (inactive)

The reported GI50 of the molecule CN1N=C(c2ccncc2)OC1c1cccc(F)c1 (centres undefined) was > 100 µM (inactive)

The reported GI50 of the molecule Cn1nc(-c2ccc(S(=O)(=O)N/C(=N/c3ccc(Cl)cc3)NN)s2)cc1C(F)(F)F was 14.2 µM (inactive)

The reported GI50 of the molecule CC(C)C(=O)OCC1OC(n2c(Br)nc3c(=O)[nH]c(N)nc32)C(OC(=O)C(C)C)C1OC(=O)C(C)C (centres undefined) was 41 µM (inactive)

The reported GI50 of the molecule Cc1cc(S(=O)(=O)NC2=Nc3ccc(Cl)cc3C(c3ccccc3)N2)c(S)cc1Cl (centres undefined) was > 100 µM (inactive)

The reported GI50 of the molecule NCCN1C(=O)c2ccccc2C1c1ccc(Cl)cc1 (centres undefined) was > 100 µM (inactive)

The reported GI50 of the molecule C#C[C@]1(O)CC[C@H]2[C@@H]3CCC4=C/C(=N\OCCN5CCCCC5)CC[C@]4(C)[C@H]3CC[C@@]21C was 1.66 µM (inactive)

The reported GI50 of the molecule COc1ccc(/N=N/N2CCCC2)cc1 was 16.9 µM (inactive)

The reported GI50 of the molecule C=CCOC1=C(OC(C)=O)C(C2COC(C)(C)O2)OC1=O (centres undefined) was 29.7 µM (inactive)

The reported GI50 of the molecule CC(C)(C)C1CCC2c3c([nH]c4ccccc34)C3C(=O)N(c4ccc(C#N)cc4)C(=O)C3C2C1 (centres undefined) was 11.9 µM (inactive)

The reported GI50 of the molecule O=C(CC(=O)N1N=C(N2CCCCC2)CC1c1ccccc1)Nc1ccc(Cl)cc1 (centres undefined) was > 100 µM (inactive)

The reported GI50 of the molecule COC(=O)[C@]12CC3C=CC1N(C3)C(CBr)c1c2n(S(=O)(=O)c2ccccc2)c2ccccc12 (some centres undefined) was 60.1 µM (inactive)

The reported GI50 of the molecule COc1cc2c(c3c1c(=O)c1ccccc1n3C)C=CC1(CCCC1)O2 was 15.3 µM (inactive)

The reported GI50 of the molecule C=C1C(=O)O[C@H]2C(=O)[C@H](C)CCC[C@@](C)(O)/C=C\C[C@@]3(C)O[C@@H]3C[C@@H]12 was 17.9 µM (inactive)

The reported GI50 of the molecule CO[P@]1(=O)O[C@@H](c2ccccc2)[C@H](O)[C@]1(O)c1ccccc1 was > 100 µM (inactive)

The reported GI50 of the molecule COP(=O)(OC)/C(=C\C1=CN(C(c2ccccc2)(c2ccccc2)c2ccccc2)CN1)NC=O was 15.1 µM (inactive)

The reported GI50 of the molecule Cc1c(-c2nc3ccccc3[nH]2)c(=O)n(-c2ccccc2)n1C was > 100 µM (inactive)

The reported GI50 of the molecule O=S(=O)(O)c1cc(S(=O)(=O)O)c2c(/N=N/c3ccccc3)c(O)ccc2c1 was > 100 µM (inactive)

The reported GI50 of the molecule Cc1noc2nnn(-c3ccc(Cl)cc3)c(=O)c12 was 6.01 µM (inactive)

The reported GI50 of the molecule COCOc1c(C(O[Si](C)(C)C(C)(C)C)c2cnc(Sc3ccccc3)n2C)ccc(OC)c1OC (centres undefined) was 1.77 µM (inactive)

The reported GI50 of the molecule CSC(=S)OC1C(CO[Si](C)(C)C(C)(C)C)OC2OC(C)(C)OC21 (centres undefined) was 29.2 µM (inactive)

The reported GI50 of the molecule Cn1c(=O)c2c(ncn2CCSS(=O)(=O)O)n(C)c1=O was > 100 µM (inactive)

The reported GI50 of the molecule CCOC(=O)CCC(NC(=O)OCc1ccccc1)C(=O)NC(CCC(=O)OCC)C(=O)NN (centres undefined) (Cbz-Glu(OEt)-Glu(OEt)-NHNH2; configuration not given here) was > 100 µM (inactive)

The reported GI50 of the molecule Cc1ccc2nc(-c3ccc(C(C)(C)C)cc3)oc(=O)c2c1 was 22.9 µM (inactive)

The reported GI50 of the molecule C=C1C(=O)OC2/C=C(/C)C3(O)OC(C)(CC(OC(=O)C(C)C)C12)CC3OC(C)=O (centres undefined) was 2.04 µM (inactive)

The reported GI50 of the molecule Cc1ccc(/N=N/c2c(O)ccc3cc(S(=O)(=O)O)ccc23)cc1 was > 100 µM (inactive)
